# Test system: Acinetobacter baumannii ATCC17961
# procedure-details: Antimicrobial susceptibility testing: 90% growth inhibitory concentration (IC90) determination in Iso-Sensitest broth, OD600 growth
# Type: cell-based
# run-parameters: Acinetobacter baumannii, ATCC17961, 16 h, strain ATCC 17961, OD600 growth over 16 h, read-out: A. baumannii ATCC 17961 IC90
Structures can show the parent of a compound that is named as a salt.
Under this convention, t denotes IC90 strictly below 0.3 µM and f denotes IC90 at or above 0.3 µM.

Take a look at these entries with their results.
{"compound": "C#CCn1cc(-c2cnc3c(Nc4cc(C)c(C(=O)N[C@H](C)CN)c(F)c4)nccn23)c(C(F)(F)F)n1 [Example 662]", "class-assignment": "t"}
{"compound": "N#CCn1cc(-c2cnc3c(Nc4ccc(C(=O)N5CCN(C(=O)[C@H]6CCNC6)CC5)c(Cl)c4)nccn23)c(C(F)(F)F)n1 [Example 190]", "class-assignment": "t"}

Ask: IC90 under 0.3 µM? Item: CCc1cc(Nc2nccn3c(-c4c[nH]nc4C(F)(F)F)cnc23)ccc1C(=O)NCCCNCCCCNCCCN [Example 270]
Result: f

Ask: Quick check: does CCc1cc(Nc2nccn3c(-c4cn(CCF)nc4C(F)(F)F)cnc23)ccc1C(=O)N[C@H](C)CN [Example 110] have IC90 under 0.3 µM?
Result: f

Ask: Please state whether IC90 is below 0.3 µM for NC1CC(NC(=O)CNC(=O)c2ccc(Nc3nccn4c(-c5c[nH]nc5C(F)(F)F)cnc34)cc2Cl)C1 (stereo not shown) [Example 138]
Result: f

Ask: Check if IC90 falls below 0.3 µM for N[C@@H]1CC[C@H](C(=O)N2CCN(C(=O)c3ccc(Nc4nccn5c(-c6cn(CC7CC7)nc6C(F)(F)F)cnc45)cc3F)CC2)C1 [Example 808, hydrochloride] .
Result: t

Ask: Problem: For the compound O=C(c1ccc(Nc2nccn3c(-c4c[nH]nc4C(F)(F)F)cnc23)cc1F)N1CCNCC1 [Example 805, hydrochloride] , is IC90 under 0.3 µM?
Result: f
